Where these numbers come from: patent US20060035901A1

# Target Or System: pyruvate carboxylase (PYC) (Sus scrofa, UniProt A0A8W4F6F0)
# Construct: a porcine liver proteome was run over an ATP-Sepharose™ column; from tissue; host or cells: porcine liver
# Sequence (A0A8W4F6F0 1-1157): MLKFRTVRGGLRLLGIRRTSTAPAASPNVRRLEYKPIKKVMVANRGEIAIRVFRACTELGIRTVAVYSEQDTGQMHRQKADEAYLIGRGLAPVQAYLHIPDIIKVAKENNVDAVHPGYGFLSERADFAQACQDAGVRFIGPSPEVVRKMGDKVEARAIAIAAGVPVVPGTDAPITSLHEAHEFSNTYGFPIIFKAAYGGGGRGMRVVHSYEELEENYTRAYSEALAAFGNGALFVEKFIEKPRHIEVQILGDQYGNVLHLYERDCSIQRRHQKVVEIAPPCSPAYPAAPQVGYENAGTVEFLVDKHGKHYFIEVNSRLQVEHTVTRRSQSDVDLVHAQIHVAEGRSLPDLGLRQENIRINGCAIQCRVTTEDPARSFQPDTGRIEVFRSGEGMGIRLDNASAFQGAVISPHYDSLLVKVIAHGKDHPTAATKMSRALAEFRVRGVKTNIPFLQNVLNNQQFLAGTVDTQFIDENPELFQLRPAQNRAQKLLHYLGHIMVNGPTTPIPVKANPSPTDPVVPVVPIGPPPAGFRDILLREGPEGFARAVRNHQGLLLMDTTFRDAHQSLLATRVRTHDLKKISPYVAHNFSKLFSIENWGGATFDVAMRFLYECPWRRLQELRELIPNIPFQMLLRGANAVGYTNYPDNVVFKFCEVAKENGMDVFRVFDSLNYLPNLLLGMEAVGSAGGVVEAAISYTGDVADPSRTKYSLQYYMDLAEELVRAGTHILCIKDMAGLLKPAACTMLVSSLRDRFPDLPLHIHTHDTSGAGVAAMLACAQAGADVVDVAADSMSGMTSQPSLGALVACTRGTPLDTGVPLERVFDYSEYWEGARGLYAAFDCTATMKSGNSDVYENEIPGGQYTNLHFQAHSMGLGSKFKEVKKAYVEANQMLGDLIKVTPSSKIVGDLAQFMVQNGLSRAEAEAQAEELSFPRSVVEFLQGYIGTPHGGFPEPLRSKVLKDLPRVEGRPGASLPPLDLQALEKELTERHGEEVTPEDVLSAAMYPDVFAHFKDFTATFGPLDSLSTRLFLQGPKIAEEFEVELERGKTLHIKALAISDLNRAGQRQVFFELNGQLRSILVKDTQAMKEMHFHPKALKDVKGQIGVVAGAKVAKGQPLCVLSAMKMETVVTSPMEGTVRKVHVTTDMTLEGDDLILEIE
# Test Protocol: Elution of PYC from ATP-Sepharose column loaded with porcine liver proteome, IC50 estimate
# Assay type: binding
# Run Conditions: estimated from percent of protein eluted from ATP-Sepharose column, read-out: Approximate IC50 for PYC
Recorded IC50 for the following compounds
Return type: number; implicit unit µM.

Recorded results for 5 compounds are shown here.
Cc1cc(C(=O)NC(CCC(=O)O)C(=O)O)ccc1N(Cc1ccoc1)Cc1cnc2nc(N)nc(N)c2n1 (stereo not drawn)	3.5
C#CCN(Cc1cnc2nc(N)nc(N)c2n1)c1ccc(C(=O)NC(CCC(=O)O)C(=O)O)cc1OC (stereo not drawn)	3.75
CC(C)(C)CN(Cc1cnc2nc(N)nc(N)c2n1)c1ccc(C(=O)NC(CCC(=O)O)C(=O)O)cc1 (stereo not drawn)	4.35
CC(C)=CCN(Cc1cnc2nc(N)nc(N)c2n1)c1ccc(C(=O)NC(CCC(=O)O)C(=O)O)cc1C (stereo not drawn)	0.5
CN(Cc1cnc2nc(N)nc(N)c2n1)c1ccc(C(=O)N[C@@H](CCC(=O)O)C(=O)O)cc1 [MTX, reference compound]	0.35

Provide pyruvate carboxylase (PYC) (Sus scrofa, UniProt A0A8W4F6F0) IC50 reading for C#CCN(Cc1cnc2nc(N)nc(N)c2n1)c1ccc(C(=O)NC(CCC(=O)O)C(=O)O)cc1OC(F)(F)F (stereo not drawn) .
7

Provide pyruvate carboxylase (PYC) (Sus scrofa, UniProt A0A8W4F6F0) IC50 reading for C#CCN(Cc1cnc2nc(N)nc(N)c2n1)c1ccc(C(=O)NC(CCC(=O)O)C(=O)O)cc1C (stereo not drawn) .
3.8

Provide pyruvate carboxylase (PYC) (Sus scrofa, UniProt A0A8W4F6F0) IC50 reading for Cc1cc(C(=O)NC(CCC(=O)O)C(=O)O)ccc1N(Cc1cnc2nc(N)nc(N)c2n1)CC(C)(C)C (stereo not drawn) .
5

Provide pyruvate carboxylase (PYC) (Sus scrofa, UniProt A0A8W4F6F0) IC50 reading for Cc1cc(C(=O)NC(CCC(=O)O)C(=O)O)ccc1N(Cc1cnc2nc(N)nc(N)c2n1)CC1CC1 (stereo not drawn) .
4
